In this section we review reported protein stability index values for a set of variants.
B1: PTPRD (parent)
chain: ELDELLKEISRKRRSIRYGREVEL

variants of: B1; test: protein stability index of a GFP-peptide fusion (GPS, HEK-293T) (PSI 1-6); higher = more stable; settings: c terminus: a fixed tail appended;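 note: lentivirally expressed fusions sorted by FACS into six bins by GFP to DsRed ratio, PSI derived from sequencing read proportions per bin multiplied by bin number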
measured_parameter: protein stability index

[[record]]
mutation_spec = "E4M"
measured_value = 1.9

[[record]]
mutation_spec = "E4S"
measured_value = 1.85

[[record]]
mutation_spec = "L5C"
measured_value = 3.12

[[record]]
mutation_spec = "S15F"
measured_value = 2.27

[[record]]
mutation_spec = "I9V"
measured_value = 2.61

[[record]]
mutation_spec = "E4P"
measured_value = 2.48

[[record]]
mutation_spec = "E21K"
measured_value = 2.09

[[record]]
mutation_spec = "E21M"
measured_value = 1.86

[[record]]
mutation_spec = "E21I"
measured_value = 1.82

